Recorded measurements of TGI, one per entry
- Tested on: SNB-78 CNS
- assayOverview: NCI tumour cell line growth inhibition, 48 h

- compound: "COC(=O)C(C(=O)C(=O)Nc1cccc([N+](=O)[O-])c1)c1nc2ccc([N+](=O)[O-])cc2[nH]c1=O (configuration not stated)"
  testValue: "> 100 µM"
- compound: "OCc1cc2ccncc2c2c1[nH]c1ccccc12"
  testValue: "63.1 µM"
- compound: "O=C(c1ccccc1)c1nc2ccc(Cl)cc2c2c1CCCO2"
  testValue: "> 100 µM"
- compound: "N#CC1(C#N)C2C=CC(c3coc4cccc2c34)C1(C#N)C#N (configuration not stated)"
  testValue: "43.1 µM"
- compound: "COc1ccc2oc(C(=O)O)c3c2c1CCC3CCC(=O)O (configuration not stated)"
  testValue: "> 100 µM"

Summary for this compound, COc1cc(C(=O)CC2OC(=O)C(Cl)=C2Cl)ccc1Cl (configuration not stated) : TGI is > 100 µM

Summary for this compound, CCOC(=O)c1cnc2sc3ccc4ccccc4c3n2c1=O : TGI is > 100 µM
